Attribution: ChEMBL document CHEMBL1152910

Target: Histamine H1 receptor (Homo sapiens, UniProt P35367)
Sequence (P35367 whole entry): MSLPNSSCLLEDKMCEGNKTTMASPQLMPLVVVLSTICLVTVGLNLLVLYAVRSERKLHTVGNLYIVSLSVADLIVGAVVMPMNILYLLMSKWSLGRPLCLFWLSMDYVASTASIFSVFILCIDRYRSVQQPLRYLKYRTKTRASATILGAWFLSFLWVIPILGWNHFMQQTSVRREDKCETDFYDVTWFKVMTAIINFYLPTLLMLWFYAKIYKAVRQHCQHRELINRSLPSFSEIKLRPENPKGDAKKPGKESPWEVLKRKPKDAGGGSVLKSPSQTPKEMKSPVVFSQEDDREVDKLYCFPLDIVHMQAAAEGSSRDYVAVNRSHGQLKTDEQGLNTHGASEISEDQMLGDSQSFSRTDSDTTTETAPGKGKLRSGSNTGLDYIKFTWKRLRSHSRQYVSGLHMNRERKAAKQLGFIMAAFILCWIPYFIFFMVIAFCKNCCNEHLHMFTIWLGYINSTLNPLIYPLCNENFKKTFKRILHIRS
Test: Inhibition of histamine H1 receptor
Parameter IC50: see the listing below.
MEASURE NAME: IC50 (nM)

[[record]]
test_smiles = "Cn1c(NCCCN2CCC(Oc3ccc(Cl)c(Cl)c3)CC2)cc(=O)n(C)c1=O"
assay_system = "Histamine H1 receptor (Homo sapiens, UniProt P35367)"
inequality_sign = "="
obs_value = 58

[[record]]
test_smiles = "Cn1c(NCCCN2CCC(Oc3ccc(Cl)cc3C(=O)O)CC2)cc(=O)n(C)c1=O"
assay_system = "Histamine H1 receptor (Homo sapiens, UniProt P35367)"
inequality_sign = ">"
obs_value = 1000


---

Assay: Protein binding in rat by equilibrium dialysis
Format: ADME, organism-based
Conditions: read-out: PB (converted)
Decide using fraction unbound: a value greater than or equal to 0.04 is Condition met, a smaller one is Condition not met.

[[record]]
compound = "Cn1c(N2CCN(CCCCN3c4ccccc4Sc4ccc(C(=O)O)cc43)CC2)cc(=O)n(C)c1=O"
class_label = "Condition not met"

[[record]]
compound = "Cn1c(N2CCCN(CCCN3c4ccccc4Sc4ccc(CC(=O)O)cc43)CC2)cc(=O)n(C)c1=O"
class_label = "Condition met"

[[record]]
compound = "CC(C(=O)O)c1ccc2c(c1)N(CCCN1CCCN(c3cc(=O)n(C)c(=O)n3C)CC1)c1ccccc1S2 (stereo unspecified)"
class_label = "Condition not met"

[[record]]
compound = "Cn1c(NCCCN2CCC(Oc3ccc(Cl)c(Cl)c3)CC2)cc(=O)n(C)c1=O"
class_label = "Condition met"

[[record]]
compound = "Cn1c(N2CCN(CCCN3c4ccccc4Sc4ccc(C(=O)O)cc43)CC2)cc(=O)n(C)c1=O"
class_label = "Condition not met"

[[record]]
compound = "Cn1c(N2CCCN(CCCN3c4ccccc4Sc4ccc(C(C)(C)C(=O)O)cc43)CC2)cc(=O)n(C)c1=O"
class_label = "Condition met"

[[record]]
compound = "Cn1c(N2CCCN(CCCN3c4ccccc4Sc4ccc(C(=O)O)cc43)CC2)cc(=O)n(C)c1=O"
class_label = "Condition not met"

[[record]]
compound = "Cn1c(N2CCN(CCCN3c4ccccc4Sc4ccc(CCC(=O)O)cc43)CC2)cc(=O)n(C)c1=O"
class_label = "Condition not met"

[[record]]
compound = "Cn1c(N2CCCN(CCCN3c4ccccc4Sc4ccc(CCC(=O)O)cc43)CC2)cc(=O)n(C)c1=O"
class_label = "Condition not met"

[[record]]
compound = "Cn1c(N2CCN(CCCN3c4ccccc4Sc4ccc(CC(=O)O)cc43)CC2)cc(=O)n(C)c1=O"
class_label = "Condition not met"

[[record]]
compound = "Cn1c(N2CCCN(CCCN3c4ccccc4Sc4ccc(OCC(=O)O)cc43)CC2)cc(=O)n(C)c1=O"
class_label = "Condition met"


---

Organism: Mus musculus
Experiment: animal or person
Type: functional
Conditions: ddY, route oral
If the reported inhibition in vivo at 3 mg/kg equals or exceeds 50%, assign true (1). If not, assign false (0).

[[record]]
compound = "Cn1c(C2=CCN(CCCN3c4ccccc4Sc4ccc(CC(=O)O)cc43)CC2)cc(=O)n(C)c1=O"
class_label = "true (1)"

[[record]]
compound = "CC(C(=O)O)c1ccc2c(c1)N(CCCN1CCCN(c3cc(=O)n(C)c(=O)n3C)CC1)c1ccccc1S2 (centres undefined)"
class_label = "true (1)"

[[record]]
compound = "Cn1c(N2CCCN(CCCN3c4ccccc4Sc4ccc(C(=O)O)cc43)CC2)cc(=O)n(C)c1=O"
class_label = "false (0)"

[[record]]
compound = "Cn1c(N2CCCN(CCCN3c4ccccc4Sc4ccc(CC(=O)O)cc43)CC2)cc(=O)n(C)c1=O"
class_label = "true (1)"

[[record]]
compound = "Cn1c(N2CCN(CCCN3c4ccccc4Sc4ccc(CC(=O)O)cc43)CC2)cc(=O)n(C)c1=O"
class_label = "true (1)"

[[record]]
compound = "CN1CCC(=C2c3ccccc3CC(=O)c3sccc32)CC1.O=C(O)/C=C/C(=O)O [KETOTIFEN FUMARATE]"
class_label = "true (1)"

